Listed here are molecules together with their documented IC50.
biological target: human IGF1R (hIGF1R) (Homo sapiens); construct: containing amino acid residues 957-1367 of human IGF1R; made in house; host or cells: Sf9 cells (baculovirus); experiment: TR-FRET kinase assay of purified hIGF1R; type: biochemical; details: activated hIGF1R 0.5 nM, 10 μM ATP, values given as pIC50 category, read-out: IGF-1R pIC50 (converted)

Solved entries (count: 2):
MOLECULE | ASSAY_SYSTEM | MEASURE_NAME | RESULT
COc1cc2c(cc1Nc1nc(Nc3cccc(F)c3C(N)=O)c3cc[nH]c3n1)CN(CCCN(C)C)CC2 | human IGF1R (hIGF1R) (Homo sapiens) | IC50 | 5.01 to 200 nM
CNC(=O)c1c(F)cc(F)cc1Nc1nc(Nc2cc3c(cc2OC)CCN3C(=O)CN(C)C)nc2[nH]ccc12 | human IGF1R (hIGF1R) (Homo sapiens) | IC50 | 0.251 to 1 nM

Task: Value lookup for IC50; key = COc1cc(N2CCC(N3CC[C@@H](F)C3)CC2)ccc1Nc1nc(Nc2cccc(F)c2C(N)=O)c2cc[nH]c2n1
Result: 1.26 to 3.98 nM

Task: Value lookup for IC50; key = CNC(=O)c1c(F)cccc1Nc1nc(Nc2cc3c(cc2OC)CCCN3C(=O)CN(C)C)nc2[nH]cc(C)c12
Result: 0.251 to 1 nM

###

molecular target: NIH-3T3 cells overexpressing human IGF-1R (Homo sapiens); experiment: IGF-1R cellular autophosphorylation (DELFIA)
Sequence (P08069 31-1367): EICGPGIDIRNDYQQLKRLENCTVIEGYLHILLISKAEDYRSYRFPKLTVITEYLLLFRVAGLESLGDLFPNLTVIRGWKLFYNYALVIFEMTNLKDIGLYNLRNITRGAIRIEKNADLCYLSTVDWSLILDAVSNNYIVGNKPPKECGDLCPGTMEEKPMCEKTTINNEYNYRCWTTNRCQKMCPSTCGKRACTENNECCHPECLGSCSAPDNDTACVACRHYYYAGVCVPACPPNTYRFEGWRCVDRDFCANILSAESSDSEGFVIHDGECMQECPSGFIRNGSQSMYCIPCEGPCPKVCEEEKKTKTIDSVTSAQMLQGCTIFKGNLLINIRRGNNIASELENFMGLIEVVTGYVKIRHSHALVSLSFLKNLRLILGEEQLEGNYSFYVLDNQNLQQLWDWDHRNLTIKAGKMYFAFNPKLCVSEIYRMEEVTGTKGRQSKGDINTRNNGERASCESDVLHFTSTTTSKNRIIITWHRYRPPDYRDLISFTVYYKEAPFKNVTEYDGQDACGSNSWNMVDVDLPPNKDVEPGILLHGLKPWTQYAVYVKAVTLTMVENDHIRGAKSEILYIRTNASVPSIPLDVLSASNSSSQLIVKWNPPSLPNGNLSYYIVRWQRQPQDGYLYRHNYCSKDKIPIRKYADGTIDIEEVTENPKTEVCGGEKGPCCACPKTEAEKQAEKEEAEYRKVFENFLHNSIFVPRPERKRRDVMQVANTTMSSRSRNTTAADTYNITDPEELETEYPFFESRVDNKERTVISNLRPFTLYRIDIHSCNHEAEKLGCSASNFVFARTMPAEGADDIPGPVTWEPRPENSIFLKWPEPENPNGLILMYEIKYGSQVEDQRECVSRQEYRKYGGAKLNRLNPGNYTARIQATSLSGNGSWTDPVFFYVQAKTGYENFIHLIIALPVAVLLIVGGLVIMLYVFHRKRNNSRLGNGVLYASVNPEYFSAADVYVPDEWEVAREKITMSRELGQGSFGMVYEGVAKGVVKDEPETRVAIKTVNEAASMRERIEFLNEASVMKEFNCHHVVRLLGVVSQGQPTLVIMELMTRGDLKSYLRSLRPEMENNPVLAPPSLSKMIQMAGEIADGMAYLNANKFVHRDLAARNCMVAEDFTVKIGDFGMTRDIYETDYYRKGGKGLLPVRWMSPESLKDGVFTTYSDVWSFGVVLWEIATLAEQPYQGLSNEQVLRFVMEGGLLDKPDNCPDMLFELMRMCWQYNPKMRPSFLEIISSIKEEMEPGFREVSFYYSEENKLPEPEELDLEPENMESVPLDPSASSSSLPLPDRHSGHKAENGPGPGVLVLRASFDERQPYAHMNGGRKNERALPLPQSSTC
pIC50: −log10 of the molar value.
MEASURE_NAME: pIC50

Solved entries (count: 3):
SMILES_CODE | RESULT
COc1cc2c(cc1Nc1nc(Nc3cc(Cl)cc(F)c3C(N)=O)c3cc[nH]c3n1)N(C(=O)CN1CCCC1)CCC2 | > 7.00
COc1cc2c(cc1Nc1nc(Nc3cccc(F)c3C(=O)NCC(C)C)c3cc[nH]c3n1)N(C(=O)CN(C)C)CC2 | 6.30 to 7.00
COc1cc(N2CCC(N3CCOCC3)CC2)ccc1Nc1nc(Nc2cc(F)c(F)cc2C(N)=O)c2cc[nH]c2n1 | > 7.00

Task: Value lookup for pIC50; key = COc1cc2c(cc1Nc1nc(Nc3cccc(F)c3C(N)=O)c3cc[nH]c3n1)N(C(C)=O)CC2
Result: 6.30 to 7.00

###

biological target: human IR (hIR) (Homo sapiens, UniProt P06213); construct: containing amino acid residues 979-1382 of human IR; experiment: TR-FRET kinase assay of purified hIR; settings: activated hIR 0.5 nM, 10 μM ATP, values given as pIC50 category
Sequence (P06213 979-1382): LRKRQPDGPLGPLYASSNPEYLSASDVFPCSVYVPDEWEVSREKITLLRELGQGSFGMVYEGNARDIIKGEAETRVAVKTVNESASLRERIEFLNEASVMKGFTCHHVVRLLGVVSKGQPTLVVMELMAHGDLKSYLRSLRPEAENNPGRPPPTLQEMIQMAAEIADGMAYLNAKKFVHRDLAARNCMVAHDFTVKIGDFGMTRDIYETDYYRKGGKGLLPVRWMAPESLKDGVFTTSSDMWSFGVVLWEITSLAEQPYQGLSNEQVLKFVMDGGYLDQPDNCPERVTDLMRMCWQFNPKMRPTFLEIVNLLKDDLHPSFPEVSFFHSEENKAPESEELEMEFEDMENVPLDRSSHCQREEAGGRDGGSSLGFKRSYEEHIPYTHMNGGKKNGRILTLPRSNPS
pIC50: −log10 of the molar value.
MEASURE_NAME: pIC50

Task: Value lookup for pIC50; key = COc1cc(N2CCC(N3CCN(CCS(C)(=O)=O)CC3)CC2)ccc1Nc1nc(Nc2cccc(F)c2C(N)=O)c2cc[nH]c2n1
Result: 8.40 to 8.90

###

target: NIH-3T3 cells overexpressing human IGF-1R (Homo sapiens); assay: IGF-1R cellular autophosphorylation (DELFIA)
MEASURE_NAME: IC50

Solved entries (count: 5):
COMPOUND | ASSAY_SYSTEM | IC50
CNC(=O)c1c(F)cccc1Nc1nc(Nc2cc(NC(=O)CN(C)C)c(C)cc2OC)nc2[nH]ccc12 | NIH-3T3 cells overexpressing human IGF-1R (Homo sapiens) | < 100 nM
COc1cc2c(cc1Nc1nc(Nc3cccc(F)c3C(N)=O)c3cc[nH]c3n1)CN(C)CC2 | NIH-3T3 cells overexpressing human IGF-1R (Homo sapiens) | 100 to 500 nM
COc1cc2c(cc1Nc1nc(Nc3cc(F)cc(F)c3C(N)=O)c3cc[nH]c3n1)N(C(=O)CN(C)C)CCC2 | NIH-3T3 cells overexpressing human IGF-1R (Homo sapiens) | < 100 nM
CNC(=O)c1c(F)cccc1Nc1nc(Nc2cc3c(cc2OC)CCCN3C(=O)CN(C)C)nc2[nH]cc(C)c12 | NIH-3T3 cells overexpressing human IGF-1R (Homo sapiens) | < 100 nM
COc1cc2ccn(CC(=O)N(C)C)c2cc1Nc1nc(Nc2cccc(F)c2C(N)=O)c2cc[nH]c2n1 | NIH-3T3 cells overexpressing human IGF-1R (Homo sapiens) | > 500 nM

Task: Value lookup for IC50; key = CN(C)CC(=O)Nc1ccc(Cl)c(Nc2nc(Nc3ccccc3C(N)=O)c3cc[nH]c3n2)c1
Result: < 100 nM

Task: Value lookup for IC50; key = CNC(=O)c1c(F)cc(Cl)cc1Nc1nc(Nc2cc3c(cc2OC)CCCN3C(=O)CN2CCCC2)nc2[nH]ccc12
Result: 100 to 500 nM

Task: Value lookup for IC50; key = Cc1ccc(NC(=O)CN(C)C)cc1Nc1nc(Nc2cc(F)c(F)cc2C(N)=O)c2cc[nH]c2n1
Result: > 500 nM

Task: Value lookup for IC50; key = CCC(C)N1CCc2cc(OC)c(Nc3nc(Nc4cccc(F)c4C(N)=O)c4cc[nH]c4n3)cc2C1 (stereo not drawn)
Result: 100 to 500 nM

Task: Value lookup for IC50; key = Cc1ccc(NC(=O)CN(C)C)cc1Nc1nc(Nc2cc(F)ccc2C(N)=O)c2cc[nH]c2n1
Result: > 500 nM

Task: Value lookup for IC50; key = CCCN1CCC=C(c2ccc(Nc3nc(Nc4ccccc4C(N)=O)c4cc[nH]c4n3)c(OC)c2)C1
Result: 100 to 500 nM

Task: Value lookup for IC50; key = CNC(=O)c1c(F)cccc1Nc1nc(Nc2cc3c(cc2OC)CCCN3C(C)=O)nc2[nH]ccc12
Result: > 500 nM

Task: Value lookup for IC50; key = COc1cc(C2=CCCN(C)C2)ccc1Nc1nc(Nc2ccc(F)cc2C(N)=O)c2cc[nH]c2n1
Result: 100 to 500 nM

Task: Value lookup for IC50; key = COc1cc2c(cc1Nc1nc(Nc3cc(F)cc(F)c3C(N)=O)c3cc[nH]c3n1)N(C(=O)CN1CCCC1)CCC2
Result: < 100 nM

Task: Value lookup for IC50; key = Cc1cc2c(cc1Nc1nc(Nc3cccc(F)c3C(N)=O)c3cc[nH]c3n1)N(C(=O)CN(C)C)CCC2
Result: 100 to 500 nM

###

Target: human IGF1R (hIGF1R) (Homo sapiens, UniProt P08069)
Construct: containing amino acid residues 957-1367 of human IGF1R; made in house; host or cells: Sf9 cells (baculovirus)
Sequence (P08069 957-1367): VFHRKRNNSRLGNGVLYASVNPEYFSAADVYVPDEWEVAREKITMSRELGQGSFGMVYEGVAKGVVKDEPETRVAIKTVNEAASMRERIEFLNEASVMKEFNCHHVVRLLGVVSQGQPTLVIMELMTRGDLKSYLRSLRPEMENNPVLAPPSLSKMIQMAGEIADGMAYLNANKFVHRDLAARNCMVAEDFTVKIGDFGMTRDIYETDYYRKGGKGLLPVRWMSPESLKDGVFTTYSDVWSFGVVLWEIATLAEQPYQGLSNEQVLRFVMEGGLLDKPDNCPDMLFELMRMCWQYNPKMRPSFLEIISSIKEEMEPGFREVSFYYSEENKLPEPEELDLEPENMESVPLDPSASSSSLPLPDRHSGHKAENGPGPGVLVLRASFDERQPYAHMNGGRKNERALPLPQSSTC
Experiment: TR-FRET kinase assay of purified hIGF1R
Type: biochemical
Settings: activated hIGF1R 0.5 nM, 10 μM ATP, values given as pIC50 category, read-out: IGF-1R pIC50 (converted)
Protocol: Time Resolved Fluorescence Resonance Energy Transfer (TR-FRET) assays were carried out on the exemplified compounds as follows: Purity is determined by HPLC. The calculated molecular mass of the peptide is 2216 dalton. […] True peptide concentration is determined by amino acid analysis. […] Assays are performed in 384-well (Greiner, Catalog No. 784076) microtiter plates. […] Compounds, titrated in DMSO, are evaluated at eleven concentrations ranging from 50 μM to 0.2 nM. […]
MEASURE_NAME: IC50

Solved entries (count: 5):
COMPOUND | RESULT
COc1cc2c(cc1Nc1nc(Nc3cccc(F)c3C(N)=O)c3cc[nH]c3n1)N(CCN(C)C)CC2 [Example 117] | 5.01 to 200 nM
CNC(=O)c1c(F)cccc1Nc1nc(Nc2cc3c(cc2OC)CCN3C(=O)CN(C)C)nc2[nH]cc(C)c12 [Example 258] | 0.251 to 1 nM
CCCN1CCC=C(c2ccc(Nc3nc(Nc4cc(F)ccc4C(=O)N[C@@H](C)CC)c4cc[nH]c4n3)c(OC)c2)C1 [Example 87] | 1.26 to 3.98 nM
CCCN(C)CC(=O)N1CCc2cc(OC)c(Nc3nc(Nc4cccc(F)c4C(N)=O)c4cc[nH]c4n3)cc21 [Example 168] | 0.251 to 1 nM
CNC(=O)c1c(F)cccc1Nc1nc(Nc2cc3c(cc2OC)CCCN3C(=O)CN(C)C)nc2[nH]ccc12 [Example 212] | 1.26 to 3.98 nM

Task: Form field: IC50 recorded for CCCN1CCCC(c2ccc(Nc3nc(Nc4cccc(OC)c4C(N)=O)c4cc[nH]c4n3)c(OC)c2)C1 (stereo not shown) [Example 36] with human IGF1R (hIGF1R) (Homo sapiens, UniProt P08069) (enter value)
Result: 1.26 to 3.98 nM

Task: Form field: IC50 recorded for COc1cc(N2CCOCC2)ccc1Nc1nc(Nc2cc(F)ccc2C(N)=O)c2cc[nH]c2n1 [Example 83] with human IGF1R (hIGF1R) (Homo sapiens, UniProt P08069) (enter value)
Result: 1.26 to 3.98 nM
